# Test system: CP250
# TEST_PROTOCOL: qHTS profiling for inhibitors of Plasmodium falciparum proliferation (AID 504749); note: nearly all actives have a fitted effect of over 60% in size; note: potency is the fitted concentration of half-maximal effect
# PARTICULARS: P. falciparum in erythrocytes, SYBR Green DNA, 72 h; series mostly up to 12.8 µM
Results filed as inconclusive are left out. Active and inactive are the calls of the source. Calls come from the whole dose curve; as a rule, active = well fitted inhibition curve with a large enough effect; inconclusive = small, poorly fitted or top-dose-only effect; inactive = flat fitted curve, though single readings scatter.
QUANTITY: Potency

Known results for molecules:
| MOLECULE | Potency |
| --- | --- |
| ClC1=C(Cl)C2(Cl)C3C4CC(C5OC45)C3C1(Cl)C2(Cl)Cl (centres undefined) | inactive |
| C=CC1CN2CCC1CC2C(OC(=O)OCC)c1ccnc2ccc(OC)cc12 (centres undefined) | 12.6 µM (active) |
| CC(=O)OC1C[C@H](O[C@@H]2C(O)C[C@H](O[C@@H]3C(O)C[C@@H](OC4CC[C@]5(C)C(CCC6C5CC(O)[C@@]5(C)C(C7=CC(=O)OC7)CC[C@@]65O)C4)OC3C)OC2C)O[C@H](C)[C@H]1O[C@H]1OC(CO)C(O)C(O)C1O (some centres undefined) | inactive |
| CCN[C@]1(c2cccs2)CCCCC1=O | inactive |
| C[N+]1([O-])[C@@H]2CC(OC(=O)[C@@H](CO)c3ccccc3)C[C@@H]1[C@H]1O[C@H]12 (some centres undefined) | inactive |
| C[C@]12CC[C@H]3[C@@H](CCC4=CC(=O)CC[C@@]43C)[C@@H]1CC[C@@H]2O | inactive |
| CC(C)N(CC[C@@](C(N)=O)(c1ccccc1)c1ccccn1)C(C)C | inactive |
| CO[C@@H](COC(N)=O)C1=C(N2CC2)C(=O)C(C)=C(N2CC2)C1=O | 1.41 µM (active) |

// returns reported Potency for input O=C1C=C2C=CC3C[C@@]2(O1)C1CCCCN31 (some centres undefined)
12.6 µM (active)
